MEASUREMENT NOTES: in vitro
RUN PARAMETERS: human, cryopreserved hepatocytes
READOUT: half-life at 3 h, 1 µM (h)

P: C#Cc1nn(-c2cc(Cl)c(Oc3cc(C(C)C)c(=O)[nH]n3)c(Cl)c2)c(=O)[nH]c1=O
Q: CC(C)c1cc(Oc2c(Cl)cc(-n3nc(C#N)c(=O)[nH]c3=O)cc2Cl)n[nH]c1=O [RESMETIROM]
query: Of P and Q , which carries the smaller reported half-life at 3 h, 1 µM figure? I would appreciate it if you answered with the label of your choice.
result: P
(P: 1.72 h, Q: 3.22 h)

###

MEASUREMENT NOTES: Effect on CPT1A gene expression in human Huh-7 cells measured for 24 hrs
RUN PARAMETERS: Huh-7, 24 h
READOUT: EC50 (nM)
Give the number; nM is assumed, so skip it.

query: // lookup EC50 for CC(C)c1cc(Oc2c(Cl)cc(-n3nc(C#N)c(=O)[nH]c3=O)cc2Cl)n[nH]c1=O [RESMETIROM]
result: 303
